- Tested on: Escherichia coli TOP10;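 also: peptides expressed intracellularly from a pBAD plasmid library in pooled LB shake-flask culture, induced with 0.3% L-arabinose, DNA abundance read by NGS, three biological replicates, DESeq2 with apeglm shrinkage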
- ASSAY_SUMMARY: shrunken log2 fold change of peptide-encoding DNA abundance (4.5 h post-induction vs induction); higher = less antimicrobial activity (less host growth inhibition)
- EXPERIMENTAL_PARAMETERS: time post-induction: 4.5 h; library: site-saturation at positions 5, 18, 19, 20
Listed next: entries and their corresponding shrunken log2 fold change.
// no unit, no text: just the number

Any idea what shrunken log2 fold change was measured for RRIRFRPPRLPRPRPRPLACPRP ?
-0.162

Continuing:
Any idea what shrunken log2 fold change was measured for RRIRVRPPRLPRPRPRPRPRPRP ?
0.62

Now give it for RRIRQRPPRLPRPRPRPFVPPRP too.
0.0357

Now give it for RRIRWRPPRLPRPRPRPRNYPRP too.
-0.169

Now give it for RRIRRRPPRLPRPRPRPTISPRP too.
-0.28

Now give it for RRIRARPPRLPRPRPRPKWMPRP too.
0.191
